# TARGET ENTITY: SERT (Homo sapiens, UniProt P31645)
# Sequence (P31645 whole entry): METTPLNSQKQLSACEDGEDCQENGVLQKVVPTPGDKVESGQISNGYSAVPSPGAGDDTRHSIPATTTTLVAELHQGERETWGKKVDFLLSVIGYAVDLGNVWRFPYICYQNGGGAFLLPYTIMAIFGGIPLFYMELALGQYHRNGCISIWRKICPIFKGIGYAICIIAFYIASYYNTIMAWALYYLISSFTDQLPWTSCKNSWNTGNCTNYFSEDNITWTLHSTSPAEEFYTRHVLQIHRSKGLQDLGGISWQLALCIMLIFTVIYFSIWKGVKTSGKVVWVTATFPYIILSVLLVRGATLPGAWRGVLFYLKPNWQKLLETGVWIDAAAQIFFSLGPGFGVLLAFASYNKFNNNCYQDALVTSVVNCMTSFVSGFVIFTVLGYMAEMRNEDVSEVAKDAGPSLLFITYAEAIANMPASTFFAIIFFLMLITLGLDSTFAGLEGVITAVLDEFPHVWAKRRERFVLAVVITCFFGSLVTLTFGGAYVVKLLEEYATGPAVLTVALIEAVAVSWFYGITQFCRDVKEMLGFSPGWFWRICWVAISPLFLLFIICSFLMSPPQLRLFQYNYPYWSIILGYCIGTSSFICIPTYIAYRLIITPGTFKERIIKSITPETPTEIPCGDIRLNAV
# TEST: hSERT radioligand binding assay (3H-citalopram)
# Parameters: expressed in transfected cells; host or cells: HEK-293
# MEASUREMENT SETUP: hSERT membranes (HEK-293), 1.0 nM 3H-citalopram
MEASUREMENT LABEL: SERT pKi

Some molecules with recorded SERT pKi:
Fc1cc(F)c(F)c(O[C@@H](c2nccs2)[C@H]2CCNC2)c1F : ≧5.0
Fc1cc(F)c(Cl)c(O[C@@H](c2nccs2)[C@H]2CCNC2)c1Cl : ≧5.0
CCc1cc(F)cc(F)c1O[C@H](c1cncc(F)c1)[C@@H]1CCNC1 : ≧7.0
Fc1ccc(F)c(O[C@@H](c2nccs2)[C@H]2CCNC2)c1Cl : ≧7.0
Clc1cc(O[C@@H](c2ccccc2)[C@H]2CCNC2)cc(Cl)n1.O=C(O)C(F)(F)F : ≧7.0

Item under review: FC(F)(F)c1cc(Cl)ccc1O[C@@H](c1ncco1)[C@H]1CCNC1.O=C(O)C(F)(F)F . Reported SERT pKi?
≧7.0

Item under review: Cc1cc(Cl)c(O[C@@H](c2ncco2)[C@H]2CCNC2)c(Cl)c1.O=C(O)C(F)(F)F . Reported SERT pKi?
≧7.0

Item under review: Brc1ccc(O[C@@H](c2ccccc2)[C@H]2CCNC2)nc1.O=C(O)C(F)(F)F . Reported SERT pKi?
≧7.0

Item under review: Fc1cc(Cl)ccc1O[C@@H](c1ncco1)[C@H]1CCNC1.O=C(O)C(F)(F)F . Reported SERT pKi?
≧7.0

Item under review: Cc1cc(Cl)c(O[C@H](c2nccs2)[C@H]2CCNC2)c(Cl)c1 . Reported SERT pKi?
≧7.0

====

# TARGET ENTITY: SERT (Homo sapiens, UniProt P31645)
# TEST: hSERT radioligand binding assay (3H-citalopram)
# Parameters: expressed in transfected cells; host or cells: HEK-293
# MEASUREMENT SETUP: hSERT membranes (HEK-293), 1.0 nM 3H-citalopram
# From the text: Membrane radioligand binding assays were used to measure inhibition of labeled ligand (^3H-citalopram or ^3H-nisoxetine or ^3H-WIN35428) binding to membranes prepared from cells expressing the respective human recombinant transporter (hSERT or hNET or hDAT) in order to determine the pKi values of test compounds at the transporters. […]
MEASUREMENT LABEL: SERT pKi

Some compounds with recorded SERT pKi:
Cc1ccccc1O[C@H](c1nccs1)[C@H]1CCNC1 : ≧7.0
COc1ncccc1O[C@@H](c1ccccc1)[C@H]1CCNC1.O=C(O)C(F)(F)F : ≧7.0
Clc1ccc(O[C@@H](c2ncco2)[C@H]2CCNC2)cc1.O=C(O)C(F)(F)F : ≧7.0
CCCOc1ncccc1O[C@@H](c1ccccc1)[C@H]1CCNC1.O=C(O)C(F)(F)F : ≧7.0
Fc1cc(F)c(Cl)c(O[C@@H](c2cnccn2)[C@H]2CCNC2)c1Cl.O=C(O)C(F)(F)F : ≧7.0
Cc1cc(Cl)ccc1O[C@@H](c1nccs1)[C@H]1CCNC1 : ≧7.0
Fc1nc(OC(c2ccccc2)C2CCNC2)c(F)c(F)c1F (stereo not drawn) : ≧5.0
Fc1cc(Cl)ccc1O[C@H](c1nccs1)[C@H]1CCNC1 : ≧7.0

Item under review: O=C(O)C(F)(F)F.c1ccc(-c2ccccc2O[C@@H](c2ncco2)[C@H]2CCNC2)cc1 . Reported SERT pKi?
≧5.0

Item under review: Fc1cnc(O[C@@H](c2ccccc2)[C@H]2CCNC2)c(F)c1.O=C(O)C(F)(F)F . Reported SERT pKi?
≧5.0

Item under review: Cc1cc(Br)cnc1O[C@@H](c1ccccc1)[C@H]1CCNC1.O=C(O)C(F)(F)F . Reported SERT pKi?
≧7.0

Item under review: COc1cc(Cl)c(F)cc1O[C@@H](c1ncco1)[C@H]1CCNC1.O=C(O)C(F)(F)F . Reported SERT pKi?
≧7.0

Item under review: Cc1ccc(OC(c2ccccc2)C2CCNC2)cn1 (stereo not drawn) . Reported SERT pKi?
≧7.0

====

# TARGET ENTITY: SERT (Homo sapiens)
# TEST: hSERT radioligand binding assay (3H-citalopram)
# Parameters: expressed in transfected cells; host or cells: HEK-293
# MEASUREMENT SETUP: hSERT membranes (HEK-293), 1.0 nM 3H-citalopram; read-out: SERT pKi (converted)
MEASUREMENT LABEL: Ki

Some molecules with recorded Ki:
Cc1cc(Cl)ccc1O[C@H](c1ncco1)[C@H]1CCNC1 : ≤ 100 nM
Clc1cc(Cl)c(O[C@@H](c2ncco2)[C@H]2CCNC2)cc1Cl : ≤ 100 nM
Fc1ccc(OC(c2nccs2)C2CCNC2)c(F)c1F (stereo not shown) : ≤ 100 nM

Item under review: Fc1ccc(F)c(O[C@H](c2cncnc2)[C@H]2CCNC2)c1Cl . Reported Ki?
≤ 100 nM

Item under review: Clc1ncccc1O[C@@H](c1ccccc1)C1CCNC1 (stereo partly shown) . Reported Ki?
≤ 100 nM

Item under review: c1ccc(C(Oc2cccnc2)C2CCNC2)cc1 (stereo not shown) . Reported Ki?
≤ 100 nM

Item under review: Clc1cc(O[C@@H](c2ccccc2)C2CCNC2)ccn1 (stereo partly shown) . Reported Ki?
≤ 100 nM

====

# TARGET ENTITY: NET (Homo sapiens)
# TEST: hNET radioligand binding assay (3H-nisoxetine)
# Set-up: expressed in transfected cells; host or cells: HEK-293
# MEASUREMENT SETUP: hNET membranes (HEK-293), 1.0 nM 3H-nisoxetine
# Source text: Membrane radioligand binding assays were used to measure inhibition of labeled ligand (^3H-citalopram or ^3H-nisoxetine or ^3H-WIN35428) binding to membranes prepared from cells expressing the respective human recombinant transporter (hSERT or hNET or hDAT) in order to determine the pKi values of test compounds at the transporters. […]
MEASUREMENT LABEL: NET pKi

Some molecules with recorded NET pKi:
Cc1cccnc1OC(c1ccccc1)C1CCNC1 (centres unmarked) : ≧5.0
Fc1cc(F)c(Cl)c(O[C@@H](c2ncco2)[C@H]2CCNC2)c1Cl.O=C(O)C(F)(F)F : ≧7.0
Cc1c(O[C@@H](c2ccccc2)[C@H]2CCNC2)ccnc1Cl.O=C(O)C(F)(F)F : ≧5.0
Cc1cc(Cl)c(OC(c2nccs2)C2CCNC2)c(Cl)c1.O=C(O)C(F)(F)F (mixture of isomers) : ≧5.0
Fc1ccc(F)c(O[C@@H](c2nccs2)[C@H]2CCNC2)c1Cl : ≧5.0
Cc1cc(Cl)c(O[C@H](c2nccs2)[C@H]2CCNC2)c(Cl)c1 : ≧5.0

Item under review: Cc1cc(Cl)ccc1O[C@@H](c1cnccn1)[C@H]1CCNC1.O=C(O)C(F)(F)F . Reported NET pKi?
≧7.0

Item under review: FC(F)(F)COc1ncccc1O[C@@H](c1ccccc1)[C@H]1CCNC1.O=C(O)C(F)(F)F . Reported NET pKi?
≧7.0

====

# TARGET ENTITY: NET (Homo sapiens, UniProt P23975)
# Sequence (P23975 whole entry): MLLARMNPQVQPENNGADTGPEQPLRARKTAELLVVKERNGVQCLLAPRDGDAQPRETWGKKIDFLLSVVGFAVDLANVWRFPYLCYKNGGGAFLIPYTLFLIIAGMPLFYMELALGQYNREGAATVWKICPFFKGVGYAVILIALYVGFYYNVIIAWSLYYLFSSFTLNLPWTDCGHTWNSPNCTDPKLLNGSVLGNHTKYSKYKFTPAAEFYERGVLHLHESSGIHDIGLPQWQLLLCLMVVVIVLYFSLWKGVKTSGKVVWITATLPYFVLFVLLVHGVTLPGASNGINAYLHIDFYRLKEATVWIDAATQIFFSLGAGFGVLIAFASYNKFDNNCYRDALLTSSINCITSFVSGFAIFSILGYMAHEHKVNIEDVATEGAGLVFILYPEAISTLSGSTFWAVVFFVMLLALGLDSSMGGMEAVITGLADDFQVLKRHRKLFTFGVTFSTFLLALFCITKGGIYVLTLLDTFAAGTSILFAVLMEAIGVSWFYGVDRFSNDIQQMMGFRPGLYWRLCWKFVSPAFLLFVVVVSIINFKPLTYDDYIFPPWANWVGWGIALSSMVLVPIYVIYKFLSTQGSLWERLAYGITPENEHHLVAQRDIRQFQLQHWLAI
# TEST: hNET radioligand binding assay (3H-nisoxetine)
# Parameters: expressed in transfected cells; host or cells: HEK-293
# MEASUREMENT SETUP: hNET membranes (HEK-293), 1.0 nM 3H-nisoxetine; read-out: NET pKi (converted)
We begin with a simple list: items and their reported Ki.

Clc1cc(Cl)cc(O[C@H](c2ncco2)[C@H]2CCNC2)c1 [6-44] : ≤ 0.1 µM
Fc1cc(F)c(OC(c2nccs2)C2CCNC2)c(F)c1 (stereo not shown) [Example 5-7] : ≤ 0.1 µM
Cc1ccccc1C(Oc1cccc2ccccc12)C1CCNC1 (stereo not shown) [21-3] : ≤ 0.1 µM

Item under review: Cc1cc(Cl)cc(C)c1OC(c1cncc(F)c1)C1CCNC1 (stereo not shown) [Example 2-46] . Reported Ki?
≤ 10 µM

Item under review: Fc1cncc(C(Oc2ccc(Cl)cc2Cc2ccccc2)C2CCNC2)c1 (stereo not shown) [Example 2-47] . Reported Ki?
≤ 0.1 µM

Item under review: Clc1ccc(O[C@@H](c2ccccc2)C2CCNC2)cn1 (stereo partly shown) [15-22] . Reported Ki?
≤ 10 µM

Item under review: Fc1cncc([C@@H](Oc2cc(Cl)cc(Cl)c2)[C@H]2CCNC2)c1 [Example 2-66] . Reported Ki?
≤ 0.1 µM

Item under review: COc1ccccc1O[C@H](c1cncc(F)c1)[C@H]1CCNC1 [Example 2-63] . Reported Ki?
≤ 10 µM

Item under review: Cc1cccc(O[C@@H](c2ncco2)[C@H]2CCNC2)c1 [6-46] . Reported Ki?
≤ 10 µM

Item under review: Fc1cc(F)c(OC(c2nccs2)C2CCNC2)c(F)c1 (stereo not shown) [Example 5-6] . Reported Ki?
≤ 10 µM

====

# TARGET ENTITY: UniProt:P23975
# TEST: hNET radioligand binding assay (3H-nisoxetine)
# Parameters: expressed in transfected cells; host or cells: HEK-293
# MEASUREMENT SETUP: hNET membranes (HEK-293), 1.0 nM 3H-nisoxetine
MEASUREMENT LABEL: NET pKi

Some compounds with recorded NET pKi:
Brc1ccc(O[C@@H](c2ccccc2)[C@H]2CCNC2)nc1.O=C(O)C(F)(F)F : ≧7.0
CCCOc1ncccc1O[C@@H](c1ccccc1)[C@H]1CCNC1.O=C(O)C(F)(F)F : ≧7.0
COc1ccccc1O[C@@H](c1cnccn1)[C@H]1CCNC1.O=C(O)C(F)(F)F : ≧7.0
Fc1cc(Cl)c(OC(c2nccs2)C2CCNC2)c(Cl)c1 (centres unmarked) : ≧5.0

// moving on: another record for NET pKi
Item under review: Cc1ccc(OC(c2ccccc2)C2CCNC2)cn1 (centres unmarked) . Reported NET pKi?
≧5.0
